# SYSTEM UNDER TEST: UniProt P04150
# Sequence (P04150 1-777): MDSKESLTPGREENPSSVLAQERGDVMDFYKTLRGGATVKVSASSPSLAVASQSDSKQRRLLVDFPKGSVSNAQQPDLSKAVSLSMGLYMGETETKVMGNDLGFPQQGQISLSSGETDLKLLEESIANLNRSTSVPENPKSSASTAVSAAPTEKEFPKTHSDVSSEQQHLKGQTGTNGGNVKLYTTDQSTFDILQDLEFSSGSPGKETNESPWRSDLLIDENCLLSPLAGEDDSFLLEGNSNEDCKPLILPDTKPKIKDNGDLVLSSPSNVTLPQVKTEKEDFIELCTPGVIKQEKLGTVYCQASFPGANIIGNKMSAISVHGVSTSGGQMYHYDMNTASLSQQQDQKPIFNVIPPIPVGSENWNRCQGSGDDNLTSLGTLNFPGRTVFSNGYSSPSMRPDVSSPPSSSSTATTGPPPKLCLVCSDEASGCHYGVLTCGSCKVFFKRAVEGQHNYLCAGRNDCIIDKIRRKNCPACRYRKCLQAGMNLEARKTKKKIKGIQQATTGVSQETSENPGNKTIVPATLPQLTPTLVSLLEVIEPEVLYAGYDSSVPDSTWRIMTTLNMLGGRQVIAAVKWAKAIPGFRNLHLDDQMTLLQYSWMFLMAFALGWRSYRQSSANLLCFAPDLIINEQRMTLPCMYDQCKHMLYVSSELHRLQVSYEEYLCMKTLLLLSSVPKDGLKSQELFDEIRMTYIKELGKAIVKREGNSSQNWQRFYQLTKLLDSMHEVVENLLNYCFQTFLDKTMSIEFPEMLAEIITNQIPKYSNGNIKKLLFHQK
# PROCEDURE TEXT: Transcriptional activation of pTAT-tk-Luc luciferase reporter in transiently transfected CV-1 cells
# CONDITION SET: ligand concentration giving 50% of maximum transcriptional response
Param label: returns Satisfied when EC50 < 0.5 nM, returns Not satisfied otherwise, including exact equality.

CC1(C)O[C@@H]2C[C@H]3[C@@H]4C[C@H](F)C5=CC(=O)C=C[C@]5(C)[C@@]4(F)[C@@H](O)C[C@]3(C)[C@]2(C(=O)CO)O1 [Fluocinolone, fluocinolone acetonide]: Satisfied
C[C@]12CCC(=O)C=C1CC[C@@H]1[C@@H]2[C@@H](O)C[C@]2(C=O)[C@@H](C(=O)CO)CC[C@@H]12: Not satisfied
C[C@]12C[C@H](O)[C@H]3[C@@H](CCC4=CC(=O)CC[C@@]43C)[C@@H]1CC[C@@H]2C(=O)CO: Not satisfied

Hello, I'm reviewing records and need to know if EC50 of CC#C[C@]1(O)CC[C@H]2[C@@H]3C=C(C)C4=CC(=O)C=C[C@]4(C)[C@H]3[C@@H](O)C[C@@]21C is below 0.5 nM. Could you check?
Satisfied

* * *

# SYSTEM UNDER TEST: hGR(I747/T) (Homo sapiens, UniProt P04150, I747T)
# Construct: The same shift was observed as with the complete GR (I747/T) mutant; expressed in transfected cells
# Sequence (P04150 1-777 I747T): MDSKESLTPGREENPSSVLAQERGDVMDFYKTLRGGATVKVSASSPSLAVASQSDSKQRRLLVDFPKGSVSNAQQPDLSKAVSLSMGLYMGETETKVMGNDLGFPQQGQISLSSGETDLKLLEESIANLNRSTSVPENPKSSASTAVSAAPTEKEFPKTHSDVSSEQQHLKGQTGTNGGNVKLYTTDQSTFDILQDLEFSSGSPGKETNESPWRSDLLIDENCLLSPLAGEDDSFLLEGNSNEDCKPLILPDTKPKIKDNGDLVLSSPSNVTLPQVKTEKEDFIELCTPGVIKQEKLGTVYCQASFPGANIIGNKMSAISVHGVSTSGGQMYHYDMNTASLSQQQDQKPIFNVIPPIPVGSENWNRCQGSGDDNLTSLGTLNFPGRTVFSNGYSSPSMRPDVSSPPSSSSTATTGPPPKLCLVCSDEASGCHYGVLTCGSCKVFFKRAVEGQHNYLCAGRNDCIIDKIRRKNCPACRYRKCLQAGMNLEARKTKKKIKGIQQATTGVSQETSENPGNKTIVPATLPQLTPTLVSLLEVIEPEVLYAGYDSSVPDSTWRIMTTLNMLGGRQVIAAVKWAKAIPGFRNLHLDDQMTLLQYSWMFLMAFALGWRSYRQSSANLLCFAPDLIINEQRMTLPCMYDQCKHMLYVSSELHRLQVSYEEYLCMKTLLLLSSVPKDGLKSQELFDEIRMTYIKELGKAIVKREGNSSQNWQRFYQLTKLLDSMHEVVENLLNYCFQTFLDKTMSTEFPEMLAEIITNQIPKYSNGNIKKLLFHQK
# PROCEDURE TEXT: Transcriptional activation of pTAT-tk-Luc luciferase reporter in transiently transfected CV-1 cells
# Type: cell-based
# CONDITION SET: CV-1 cells, pTAT-tk-Luc, 24 h ligand; mean of three independent assays
PARAMETER MEASURED: Luciferase activity % hGR (I747/T)
In your response, put the unit directly after the numeric value.

Here are 5 molecules together with their reported answers.
C[C@]12CCC(=O)C=C1CC[C@@H]1[C@@H]2[C@@H](O)C[C@]2(C=O)[C@@H](C(=O)CO)CC[C@@H]12: 0%
C[C@@H]1C[C@H]2[C@@H]3CCC4=CC(=O)C=C[C@]4(C)[C@@]3(F)[C@@H](O)C[C@]2(C)[C@@]1(O)C(=O)CO: 100%
CC#C[C@]1(O)CC[C@H]2[C@@H]3C=C(C)C4=CC(=O)C=C[C@]4(C)[C@H]3[C@@H](O)C[C@@]21C: 88%
C[C@]12C[C@H](O)[C@H]3[C@@H](CCC4=CC(=O)CC[C@@]43C)[C@@H]1CC[C@@H]2C(=O)CO: 0%
CC1(C)O[C@@H]2C[C@H]3[C@@H]4CCC5=CC(=O)C=C[C@]5(C)[C@@]4(F)[C@@H](O)C[C@]3(C)[C@]2(C(=O)CO)O1 [TA, triamcinolone acetonide]: 102%

Respectfully, I request Luciferase activity % hGR (I747/T) for each entry included below.
1. C[C@]12CCC(=O)C=C1CC[C@@H]1[C@@H]2[C@@H](O)C[C@@]2(C)[C@H]1CC[C@]2(O)C(=O)CO
2. CC1(C)O[C@@H]2C[C@H]3[C@@H]4C[C@H](F)C5=CC(=O)C=C[C@]5(C)[C@@]4(F)[C@@H](O)C[C@]3(C)[C@]2(C(=O)CO)O1 [Fluocinolone, fluocinolone acetonide]

1: 15%; 2: 100%
